Reference source for all entries: patent US11453711B2

method.summary: Body weight and food intake in C57BL/6 mice, fusion protein conjugates, 30 nmol/kg daily 10 days
Type: in vivo
Listed next: entries and their corresponding Body weight reduction at 30 nmol/kg (% reduction compared to vehicle)(Day11).
Record the value in %, omitting the unit from your answer.

molecule="MLC083: fusion polypeptide SEQ ID NO: 376 conjugated with Moiety B at 39C of Linker (conjugate, Moiety B conjugated at linker Cys39) HGEGTFTSDVSSYLEEQAAKEFIAWLVRGGGGQEPGAQPGQEPGAQPGQEPGAQPGQEPGAQPGQEPGQCPGQEPGAQPGAQPGAQPGAQPGAQPGAQPGAQPGAQPGAQPARQGDHCPLGPGRCCRLHTVRASLEDLGWADWVLSPREVQVTMCIGACPSQFRAANLHAQIKTSLHRLKPDTVPAPCCVPASYNPMVLIQKTDTGVSLQTYDDLLAKDCHCI" observed_result=21.6

Can you share its Body weight reduction at 30 nmol/kg (% reduction compared to vehicle)(Day11)? I mean this molecule: MLC080: fusion polypeptide SEQ ID NO: 374 conjugated with Moiety B at 35C of Linker (conjugate, Moiety B conjugated at linker C35) HGEGTFTSDVSSYLEEQAAKEFIAWLVRGGGGQEPGAQPGQEPGAQPGQEPGAQPGQEPGAQPGQCPGAQPGQEPGAQPGQEPGAQPGAQPGAQPGAQPGAQPGAQPGAQPARQGDHCPLGPGRCCRLHTVRASLEDLGWADWVLSPREVQVTMCIGACPSQFRAANLHAQIKTSLHRLKPDTVPAPCCVPASYNPMVLIQKTDTGVSLQTYDDLLAKDCHCI 17.2
